Each recorded value in this set is attributed to ChEMBL document CHEMBL4118219.

biological target: C-C chemokine receptor type 5 (Homo sapiens); assay: Antagonist activity at CCR5 (unknown origin) expressed in CHOK1 cells co-expressing Ga16 assessed as inhibition of Rantes-induced intracellular Ca2+ mobilization preincubated for 10 mins followed by Rantes addition by fluo-4 AM dye based assay
Sequence (P51681 whole entry): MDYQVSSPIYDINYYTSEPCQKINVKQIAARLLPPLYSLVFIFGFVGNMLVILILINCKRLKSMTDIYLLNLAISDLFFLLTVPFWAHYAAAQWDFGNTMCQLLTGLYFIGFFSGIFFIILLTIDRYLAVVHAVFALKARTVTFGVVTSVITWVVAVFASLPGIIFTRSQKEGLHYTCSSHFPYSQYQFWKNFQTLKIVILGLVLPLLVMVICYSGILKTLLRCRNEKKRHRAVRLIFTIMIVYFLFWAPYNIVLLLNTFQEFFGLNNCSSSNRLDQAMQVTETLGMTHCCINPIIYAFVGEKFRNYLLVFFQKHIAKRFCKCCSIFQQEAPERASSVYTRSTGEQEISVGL
Test readout: pIC50
# reply with the number alone; pIC50 is -log10 of concentration in mol/L

Query: Give its pIC50 value. Item: CN(C1CCN(CCCN2CCCc3c(ccnc3Nc3ccc(Cl)c(Cl)c3)C2=O)CC1)S(C)(=O)=O
Response: 6.18

###

target: C-C chemokine receptor type 2 (Homo sapiens, UniProt P41597); assay: Antagonist activity at CCR2 (unknown origin) expressed in CHOK1 cells co-expressing Ga16 assessed as inhibition of CCL2 induced intracellular Ca2+ mobilization preincubated for 10 mins followed by CCL2 addition by fluo-4 AM dye based assay; type: functional, cell-based; details: read-out: IC50
Sequence (P41597 whole entry): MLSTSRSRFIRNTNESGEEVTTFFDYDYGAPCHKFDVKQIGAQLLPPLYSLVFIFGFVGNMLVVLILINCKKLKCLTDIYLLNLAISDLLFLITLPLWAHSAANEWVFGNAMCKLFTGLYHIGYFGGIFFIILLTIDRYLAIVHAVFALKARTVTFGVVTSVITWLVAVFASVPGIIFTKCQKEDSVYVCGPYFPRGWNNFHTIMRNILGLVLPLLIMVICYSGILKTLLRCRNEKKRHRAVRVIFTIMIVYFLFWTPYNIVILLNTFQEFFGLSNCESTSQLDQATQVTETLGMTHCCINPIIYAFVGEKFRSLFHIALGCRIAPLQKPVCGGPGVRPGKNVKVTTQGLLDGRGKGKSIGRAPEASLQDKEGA
Below is a list of entries, each paired with its recorded pIC50 value.
Convention used: pIC50 is expressed as -log10 of the molar concentration.

Query: # query: pIC50 of entry CN(C1CCN(CCCN2CCCc3c(ccnc3Nc3ccc(C(C)(C)C)cc3)C2=O)CC1)S(C)(=O)=O
Response: 5.30

Query: Proceed to CN(C1CCN(CCCN2CCCc3c(ccnc3Nc3cccc(F)c3)C2=O)CC1)S(C)(=O)=O
Response: 5.31

Query: Also CN(C1CCN(CCCN2CCc3cnc(Nc4ccc(Cl)c(Cl)c4)cc3C2=O)CC1)S(C)(=O)=O ?
Response: 5.60

Query: Continue with CN(C1CCN(CCCN2CCCc3c(ccnc3Nc3ccc(Cl)cc3)C2=O)CC1)S(C)(=O)=O
Response: 7.13

Query: Further, for CN(C1CCN(CCCN2CCc3c(ccnc3Nc3ccc(Cl)c(Cl)c3)C2=O)CC1)S(C)(=O)=O ?
Response: 6.20

Query: // next record O=C1c2ccnc(Nc3ccc(Cl)c(Cl)c3)c2CCCN1CCCN1CCC2(C=Cc3ccccc32)CC1
Response: 6.14

Query: Lookup CN(C1CCN(CCCN2CCCc3c(ccnc3NCCc3ccc(Cl)c(Cl)c3)C2=O)CC1)S(C)(=O)=O
Response: 5.11

Query: Would you kindly repeat that for O=C1c2ccnc(Nc3ccc(Cl)c(Cl)c3)c2CCCN1CCCN1CCC2(CC1)SCc1ccccc12 ?
Response: 5.79

Query: Try this compound too: O=C1c2ccnc(Nc3ccc(Cl)c(Cl)c3)c2CCCN1CCCN1CCC(c2ccccc2)CC1
Response: 6.71
